# testDetails: Primary qHTS for inhibitors of MERS-S pseudo-typed particle cell entry (AID 1479149); also: nearly all actives have a fitted effect of over 60% in size
# experimentalParameters: MERS-S pseudotyped particle entry, luciferase; series mostly up to 57.1 µM
Inconclusive results are not listed. Active and inactive are the calls of the source. Calls follow the shape of the full dose curve.
Tick one outcome: yes for active, no for inactive

[
  {
    "molecule": "CCC1(C)OC(=O)N(C)C1=O (stereo unspecified)",
    "label": "no"
  },
  {
    "molecule": "CC(=O)OCC1=C(C(=O)O)N2C(=O)[C@@H](NC(=O)[C@H](N)c3ccccc3)[C@H]2SC1",
    "label": "no"
  }
]

Just curious, what result did CCCCC[C@H](O)/C=C/[C@@H]1[C@@H](C/C=C/CCCC(=O)O)[C@@H](O)C[C@H]1O get here? no

Just curious, what result did CC(C)=CCCC(C)=CCCC(C)=CCCC=C(C)CCC=C(C)CCC=C(C)C get here? no

###

# testDetails: qHTS Assay for Lipid Storage Modulators (AID 1519)
# experimentalParameters: Drosophila S3 cells, BODIPY lipid droplet/cell ratio, laser cytometry; measured here: cell count channel max response; cells loaded with oleic acid
Records with an inconclusive call do not appear.
measurementKind: max response (%)
One number for each entry, in %.

# annotated cases, reported max response shown
[
  {
    "compound": "CNC1C2CN3CCC(O2)C13 (centres undefined)",
    "valueUnits": "%",
    "max response": 7.52
  },
  {
    "compound": "C=C[C@H]1CN2CC[C@H]1C[C@H]2c1[nH]c2ccccc2c1CCO",
    "valueUnits": "%",
    "max response": -5.69
  },
  {
    "compound": "CCC(N)C(O)c1ccc(O)c(O)c1 (centres undefined)",
    "valueUnits": "%",
    "max response": 7.01
  },
  {
    "compound": "CC1(C)C(O)CC(O)[C@]2(C)C1CC(=O)[C@]1(C)C2CC[C@@]2(C)C(c3ccoc3)OC(=O)C3OC321 (some centres undefined)",
    "valueUnits": "%",
    "max response": 17
  },
  {
    "compound": "CC(C)NC(=O)N1CCC2(CCNCC2)CC1",
    "valueUnits": "%",
    "max response": 1.41
  },
  {
    "compound": "ClC1=C(Cl)C2(Cl)C3C4CC(C5OC45)C3C1(Cl)C2(Cl)Cl (centres undefined)",
    "valueUnits": "%",
    "max response": 8.98
  }
]

Lab note: each compound below needs its max response filled in.
1. COc1cc2c(cc1OC)[C@@H]1C(=O)c3ccc4oc(C(C)C)cc4c3OC1CO2 (some centres undefined)
2. COc1ccc(C(=O)OC2C[C@H]3CC[C@@H](C2)N3C)cc1OC (some centres undefined)
3. COC(=O)N1CCC2(CCN(CC(C)C)CC2)CC1
4. CC(=O)OC1CC[C@]2(C)C(CCC3C2CC[C@]2(C)C(C4=CC(=O)OC4)C(OC(C)=O)CC32O)C1 (some centres undefined)
5. CNC[C@H](O)c1ccc(O)c(OC)c1

-28.2
-3.69
-7.4
1.24
7.01

Lab note: each compound below needs its max response filled in.
1. CN1C2CC(OC(=O)C(CO)c3ccccc3)CC1C(O)C2 (centres undefined)
2. C[C@@]12CCC(=O)C=C1C=C[C@H]1[C@H]3CC[C@](O)(CCC(=O)O)[C@]3(C)CC[C@@H]12
3. CC1=CCCC2C1(C)CCC(C)C2(C)CC/C(C)=C/C[n+]1cn(C)c2c(N)ncnc21 (centres undefined)
4. COc1cc2c(c(OC)c1OC)-c1ccc(OC)c(=O)cc1C(NC(C)=O)CC2 (centres undefined)

[7.52, -7.2, 2.19, 10.2]

Lab note: each compound below needs its max response filled in.
1. C[C@@H]1O[C@H](O[C@@H]2C=C3CC[C@H]4[C@@H](CC[C@]5(C)[C@@H](c6ccc(=O)oc6)CC[C@]45O)[C@@]3(C)CC2)[C@@H](O)[C@H](O)[C@@H]1O
2. C[C@H]1C(=O)O[C@@H]2CCN3CC=C(COC(=O)[C@@](C)(O)[C@@]1(C)O)[C@H]23
3. C[C@]1(C(=O)O)CCC[C@]2(C)c3cc(O)ccc3CC[C@@H]12

-11.6
4.14
-21.1

Lab note: each compound below needs its max response filled in.
1. O=C(c1csnn1)N1CCC[C@@]2(CCN(Cc3ccncc3)C2)C1
2. O=c1ccc2cc(OC3OC(CO)C(O)C(O)C3O)c(O)cc2o1 (centres undefined)
3. CC1(C)C(O)CC(=O)[C@]2(C)C1CC(=O)[C@]1(C)C2CC[C@@]2(C)C(c3ccoc3)OC(=O)C3O[C@@]321 (some centres undefined)
4. COc1cc(CNC(=O)CCCC/C=C\C(C)C)ccc1O

21.7
-25.8
16.1
-15.8

Lab note: each compound below needs its max response filled in.
1. O=C(NC(=O)c1ccccc1Cl)Nc1ccc(OC(F)(F)F)cc1
2. O=C(Oc1ccccc1)N1CCC2(CC1)CCN(C(c1ccccc1)c1ccccc1)CC2
3. O=C(OC1CCN(CCCl)CC1)C(c1ccccc1)c1ccccc1
4. O=C1CCCC2[C@@H]3CCCN4CCC[C@@H](CN12)C34 (some centres undefined)
5. COc1cc(OC)c2c(c1)OC(c1ccc(OC)c(OC)c1)C(O)C2 (centres undefined)

[0.34, 5.73, -17.2, 4.45, 10.1]

Lab note: each compound below needs its max response filled in.
1. CCN(CC)C(=O)N[C@H]1C=C2c3cccc4[nH]cc(c34)C[C@@H]2N(C)C1
2. CCN1C[C@]2(COC)CC[C@H](O)[C@@]34[C@@H]5C[C@H]6[C@@H](OC)[C@H]5[C@](O)(C[C@@H]6OC)[C@@](O)([C@@H](OC)[C@H]23)[C@@H]14
3. O=c1cccc2n1CC1CC2CN(CCO)C1 (centres undefined)
4. c1csc(CN2CCC3(CCNCC3)CC2)n1
5. CCC1CN2CCc3cc(OC)c(OC)cc3C2CC1CC1NCCc2cc(OC)c(OC)cc21 (centres undefined)
6. COc1ccccc1CN1CC[C@@]2(CCCN(C(=O)Oc3ccccc3)C2)C1
7. CC1O[C@@H](OC2CC(O)[C@@]3(CO)C4C(O)C[C@@]5(C)C(C6=CC(=O)OC6)CC[C@]5(O)C4CC[C@]3(O)C2)C(O)C(O)C1O (some centres undefined)
8. CC1(C)C(O)CC(O)[C@]2(C)C1CC(O)[C@]1(C)C2CC[C@@]2(C)C(c3ccoc3)CC3OC312 (some centres undefined)

-15.1
-10.9
9.42
11.7
-0.174
2.61
6.17
-11.5

Lab note: each compound below needs its max response filled in.
1. CC(C)CN1CC2(CCN(C(=O)Oc3ccccc3)CC2)C1
2. N#Cc1c(Cl)cccc1Cl
3. COc1cc2c3cc1Oc1c(OC)c(OC)cc4c1C(Cc1cccc(c1)Oc1ccc(c(O)c1)CC3N(C)CC2)N(C)CC4 (centres undefined)

-4.14
9.19
15.8

// returns reported max response for input CCN1C[C@@]2(COC)CC[C@H](OC)[C@]34[C@@H]1[C@]1(OCO[C@@]15C[C@@H](OC)C1C[C@H]3[C@H]5[C@@H]1OC)[C@H](O)[C@@H]24 -14.7

###

# testDetails: Primary qHTS for inhibitors of SARS-S pseudo-typed particle cell entry (AID 1479145); also: nearly all actives have a fitted effect of over 45% in size
# experimentalParameters: SARS-S pseudotyped particle cell entry, luciferase reporter; series mostly up to 57.1 µM
Results filed as inconclusive are left out. Calls of active or inactive are those of the source. Calls come from the whole dose curve.
Tick one outcome: true (1) for active, false (0) for inactive

[
  {
    "molecule": "COC[C@H]1C[C@@H](c2ncc(-c3ccc4c(c3)COc3cc5c(ccc6[nH]c([C@@H]7CC[C@H](C)N7C(=O)[C@@H](NC(=O)OC)C(C)C)nc65)cc3-4)[nH]2)N(C(=O)[C@H](NC(=O)OC)c2ccccc2)C1",
    "label": "false (0)"
  }
]

Just curious, what result did CCCCCC/C=C\CCCCCCCC(=O)O get here? false (0)

Just curious, what result did FC(F)OC(Cl)C(F)(F)F (stereo not drawn) get here? false (0)

Just curious, what result did CN(C)c1ccc(C(=C2C=CC(=[N+](C)C)C=C2)c2c(O)c(S(=O)(=O)[O-])cc3cc(S(=O)(=O)O)ccc23)cc1 get here? false (0)

###

# testDetails: qHTS Assay for Lipid Storage Modulators (AID 1519)
# experimentalParameters: Drosophila S3 cells, BODIPY lipid droplet/cell ratio, laser cytometry; measured here: cell count channel max response; cells loaded with oleic acid
# Description: NIH Molecular Libraries Probe Production Centers Network [MLPCN] NIH Chemical Genomics Center [NCGC] Assay Submitter (PI): Beller, Mathias; Max-Planck-Institut fur Biophysikalische Chemie […] We dispensed 4 uL of cells at 1.25 x 10^6 cells/mL into LoBase Aurora COC 1,536-well plates (black walled, clear bottom) with a bottle-valve solenoid-based dispenser (Aurora) to obtain 5,000 cells/well. […] The ratio of the total intensity in PMT channel 1 over total intensity of channel 3 was also calculated. […]
Records with an inconclusive call do not appear.
measurementKind: max response
Numeric answer plus unit only.

# annotated cases, reported max response shown
[
  {
    "compound": "CNC(=O)Oc1cccc2c1OC(C)(C)C2",
    "max response": "5.85%"
  },
  {
    "compound": "COC1C(O)C(C)O[C@H](OC2CC[C@@]3(C=O)C4CC[C@]5(C)C(C6=CC(=O)OC6)CC[C@@]5(O)C4CC[C@@H]3C2)C1O (stereo not given in full)",
    "max response": "21.5%"
  },
  {
    "compound": "O=C(c1ccco1)N1CCC[C@@]2(CCN(Cc3ccncc3)C2)C1",
    "max response": "6.21%"
  },
  {
    "compound": "C#CCOS(=O)OC1CCCCC1Oc1ccc(C(C)(C)C)cc1 (stereo not given)",
    "max response": "0.489%"
  },
  {
    "compound": "C[C@@]12CCC3C(CCC4=CC(=O)CC[C@]43C)C1CCC2O (stereo not given in full)",
    "max response": "0.874%"
  }
]

Lab note: each compound below needs its max response filled in.
1. CS(=O)(=O)N1CCC2(CC1)CN(Cc1ccncc1)C2
2. Cc1nc2cnc(N3CCNCC3)nc2n(C)c1=O
3. COc1nc(NC(C)C)nc(NC(C)C)n1
4. c1cnc(N2CCCC3(CCNCC3)C2)nc1
5. CC(=O)OC1CC(OC(C)=O)[C@]2(C)C(CC(OC(C)=O)[C@]3(C)C2CC[C@@]2(C)C(c4ccoc4)C(=O)C4O[C@]432)C1(C)C (stereo not given in full)

1: 21.7%; 2: 18.7%; 3: -5.5%; 4: 9.32%; 5: -13.1%
